tested on: control cell lines (HACAT, HEK293T, CRL-7250, NIH-3T3); assay: qHTS cell viability, control cell lines as a group (mean AUC, Control.avg); assay type: cell-based; conditions: NPC library; mean AUC of control cell lines
Structures can show the parent of a compound that is named as a salt.
Quick reference for Control_Avg_AUC among some compounds
parameter: Control_Avg_AUC

compound: OCCN1CCN(CCCN2c3ccccc3Sc3ccc(C(F)(F)F)cc32)CC1 [Fluphenazine]
obs-value: 473.361
--
compound: CCCCC(CC)CNC(=N)NC(=N)NCCCCCCNC(=N)NC(=N)NCC(CC)CCCC (stereo not shown) [Alexidine dihydrochloride]
obs-value: 406.962
--
compound: CC1=C(C)C(=O)C(CCCCC#CCCCC#CCO)=C(C)C1=O [Docebenone]
obs-value: 470.48
--
compound: O=C(CCCCCCCCC#CI)Oc1ccccc1 [Phenyl 11-iodo-10-undecynoate]
obs-value: 487.017
--
compound: [H]/N=C(/NCCCCC)N/N=C/c1c[nH]c2ccc(OC)cc12 [Tegaserod]
obs-value: 420.238
--
compound: CCCC(C(=O)OCCN(CC)CC)(c1ccccc1)c1ccccc1 [Proadifen hydrochloride]
obs-value: 459.893
--
compound: CCOc1ccc2nc(S(N)(=O)=O)sc2c1 [Ethoxzolamide]
obs-value: 474.669
--
compound: Clc1ccc(C(Cn2ccnc2)OCc2ccsc2Cl)c(Cl)c1 (stereo not shown) [Tioconazole]
obs-value: 467.697
--
compound: COc1ccc(CCN(C)CCCC(C#N)(c2cc(OC)c(OC)c(OC)c2)C(C)C)cc1OC (stereo not shown) [Gallopamil hydrochloride]
obs-value: 479.21
--
compound: O=C(N/N=C/c1ccccc1O)c1ccncc1 [Salinazid]
obs-value: 460.093
--
compound: CCOC(=O)[C@H](CCc1ccccc1)N[C@@H](C)C(=O)N1CCC[C@H]1C(=O)O [Enalapril]
obs-value: 477.153
--
compound: [H]/N=C(\N/C(=N/[H])NCCCCCCNC(=N)NC(=N)Nc1ccc(Cl)cc1)Nc1ccc(Cl)cc1 [Chlorhexidine]
obs-value: 442.76
--
compound: Oc1ccc(C2CNCCc3c2cc(O)c(O)c3Cl)cc1 (stereo not shown) [Fenoldopam]
obs-value: 491.543
